Experiment: Toxicity liver stage against HepG2, at 10uM
Type: cell-based
Parameters: test concentration 10 uM, cell line HepG2-A16-CD81EGFP
Conditions: human, HepG2-A16-CD81EGFP cells; read-out: INHIBITION
Please go through the items and note down their cytotoxicity at 10 µM.
Dear colleague, please return just the value in %, with no unit written.

Endpoint output: cytotoxicity at 10 µM of CN(C)CCN1C(=O)CCC12CCCN(C(=O)c1ccncc1F)C2 (configuration not stated) . Value?
3.06

Suppose we examine the compound Cc1n[nH]c(C2CN(C(=O)c3ccc(=O)n(C)c3)CCO2)n1 (configuration not stated) ; what cytotoxicity at 10 µM value has been reported?
3.75

I'd like to know its cytotoxicity at 10 µM. The compound in question is CC(C)N1C(=O)CO[C@H]2CCN(C(=O)c3ccc4c(c3)CCC4)CC[C@@H]21
3.79

So what does the record say about cytotoxicity at 10 µM for COc1ccc(C(=O)C2CCCN(CCc3ccccc3)C2)c(OC)c1 (configuration not stated) ?
7.8

Tell me the measured cytotoxicity at 10 µM of CCS(=O)(=O)NCCCNC(=O)N(C)C(C)c1ccccn1 (configuration not stated) , please.
7.31

Which cytotoxicity at 10 µM is listed for CC(=O)N1CCc2nc3sc(C(N)=O)c(N)c3c(C(F)(F)F)c2C1 ?
6.28

Which measured cytotoxicity at 10 µM value corresponds to Cc1nccc(C2CN(C(=O)c3cncnc3)C2)n1 ?
-2.46
